# TESTED TARGET: T1, AIM2HIN (Homo sapiens, UniProt O14862 144-343)
# T1 sequence: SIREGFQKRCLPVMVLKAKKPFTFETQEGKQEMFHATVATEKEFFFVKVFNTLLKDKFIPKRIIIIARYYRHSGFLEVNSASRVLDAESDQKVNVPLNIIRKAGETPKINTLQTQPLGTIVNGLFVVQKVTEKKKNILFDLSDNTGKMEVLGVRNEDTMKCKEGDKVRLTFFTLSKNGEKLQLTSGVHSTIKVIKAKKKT
# PROCEDURE DETAILS: fluorescence anisotropy; 160 mM KCl (60 mM KCl for IFI16HinAB); buffer, pH and temperature not given in the available text
# EXPERIMENTAL CONTEXT: protein: recombinant; label: FAM
ENDPOINT LABEL: Kd (nM)
The reply should contain only the number, in nM.

**Q:** # lookup: Kd of 24-bp dsRNA (dsRNA) RNA 1: UAAGACACGAUGCGAUAAAAUCUG RNA 2: CAGAUUUUAUCGCAUCGUGUCUUA
**A:** 1200

**Q:** Please answer likewise for TTTCTTTCTTTCTTTCTTTCTTTC (ssDNA) [24-base ssDNA_T]
**A:** 1200

**Q:** Then 24-bp dsDNA (dsDNA) DNA 1: TAAGACACGATGCGATAAAATCTG DNA 2: CAGATTTTATCGCATCGTGTCTTA ?
**A:** 900

**Q:** Same read-out for 24-bp DNA:RNA hybrid (DNA:RNA) DNA: TAAGACACGATGCGATAAAATCTG RNA: CAGAUUUUAUCGCAUCGUGUCUUA ?
**A:** 900

**Q:** Let us now turn to UUUCUUUCUUUCUUUCUUUCUUUC (ssRNA) [24-base ssRNA_U]
**A:** 210
